Just for reference, PubChem BioAssay AID1159580 is where these values come from.

- experiment.summary: chemical genetic growth profiling, strain panel (AID 1159580);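 also: tested at 20 µM; growth read once vehicle control cultures reached saturation at 30 °C; 1 = growth at the plate median or of vehicle wells; lower values mean less growth of the strain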
- conditions: S. cerevisiae deletion strains, growth OD, locus YDR363W, strain ESC2, active compounds read low
Out of some 5,500 compounds screened, about 2,000 (36%) were called active. Inconclusive results (about 18%) are left out. The list shows a part of the results.
Measured normalized growth, listed per entry.
Write the number on its own, no unit after it.

Observe how each entry below is paired with its result.
compound	normalized growth
O=C(O)/C(=C/c1c(C(=O)O)[nH]c2cc(Cl)cc(Cl)c12)c1ccccc1	1.03
Cc1nc(N=Nc2ccc(S(=O)(=O)O)cc2S(=O)(=O)O)c(COP(=O)(O)O)c(C=O)c1O	1.01
CN1CCN(CC/C=C2/c3ccccc3Sc3ccc(S(=O)(=O)N(C)C)cc32)CC1	0.983
COc1cc2c(cc1OC)-c1cc(=Nc3c(C)cc(C)cc3C)n(C)c(=O)n1CC2	1
C=C(C)C1Cc2c(ccc3c2OC2COc4cc(OC)c(OC)cc4C2C3=O)O1 (configuration not stated)	0.99

[Q] What value of normalized growth has been recorded for this entry: CCCCCCCCCCCCCCCCOCC(COCC(F)(F)F)OP(=O)(O)OCO (configuration not stated)
[A] 0.968

[Q] What value of normalized growth has been recorded for this entry: `O=C(Cc1ccc(Cl)c(Cl)c1)OCCN1CCCC1`
[A] 1.02
